# Tested on: SK-OV-3 ovarian
# test: NCI tumour cell line growth inhibition, 48 h
endpoint.label: TGI (µM)

[
  {
    "compound": "FC(F)(F)c1ccc(-c2ncc(-c3ccc(C(F)(F)F)cc3)c(NCc3cc(C(F)(F)F)cc(C(F)(F)F)c3)n2)cc1",
    "experimental.target": "SK-OV-3 ovarian",
    "endpoint.label": "TGI",
    "relational.operator": "=",
    "numeric.value": 55.2
  },
  {
    "compound": "CCC1c2cc3n(c(=O)c2COC1O)Cc1c-3nc2ccccc2c1Cl (stereo not given)",
    "experimental.target": "SK-OV-3 ovarian",
    "endpoint.label": "TGI",
    "relational.operator": ">",
    "numeric.value": 100
  },
  {
    "compound": "COc1ccccc1NC(=O)C(=O)Cc1cnc2ccccc2n1",
    "experimental.target": "SK-OV-3 ovarian",
    "endpoint.label": "TGI",
    "relational.operator": ">",
    "numeric.value": 100
  },
  {
    "compound": "CCCNCC(O)CNc1ccc(NCC(O)CNCCC)c2c1C(=O)c1ccccc1C2=O (stereo not given)",
    "experimental.target": "SK-OV-3 ovarian",
    "endpoint.label": "TGI",
    "relational.operator": "=",
    "numeric.value": 7.78
  },
  {
    "compound": "C#CCn1c(=O)c2cccnc2n(CC#C)c1=O",
    "experimental.target": "SK-OV-3 ovarian",
    "endpoint.label": "TGI",
    "relational.operator": ">",
    "numeric.value": 100
  },
  {
    "compound": "[N-]=[N+]=CC(=O)OCC1NC(=O)C(COC(=O)C=[N+]=[N-])NC1=O (stereo not given)",
    "experimental.target": "SK-OV-3 ovarian",
    "endpoint.label": "TGI",
    "relational.operator": ">",
    "numeric.value": 100
  },
  {
    "compound": "CC(=O)CC(=O)NC=O",
    "experimental.target": "SK-OV-3 ovarian",
    "endpoint.label": "TGI",
    "relational.operator": ">",
    "numeric.value": 100
  },
  {
    "compound": "CC(=O)OCC1OC(OC(C)=O)C(Nc2ncc(-c3ccc(C)cc3)s2)C(OC(C)=O)C1OC(C)=O (stereo not given)",
    "experimental.target": "SK-OV-3 ovarian",
    "endpoint.label": "TGI",
    "relational.operator": ">",
    "numeric.value": 100
  },
  {
    "compound": "O=[N+]([O-])/C=C/c1cc2ccc3ccccc3c2[nH]1",
    "experimental.target": "SK-OV-3 ovarian",
    "endpoint.label": "TGI",
    "relational.operator": "=",
    "numeric.value": 17.2
  },
  {
    "compound": "Cn1c2cc([N+](=O)[O-])ccc2c(=O)c2c(O)cc3c(c21)C=CC(C)(C)O3",
    "experimental.target": "SK-OV-3 ovarian",
    "endpoint.label": "TGI",
    "relational.operator": "=",
    "numeric.value": 87.8
  }
]
